target: canine TRPM8 (Canis lupus familiaris, UniProt Q1A7N1); test: In Vitro Canine TRPM8 Functional Assay (Ca2+ fluorescence, icilin activation); format: cell-based; conditions: HEK293 cells stably expressing canine TRPM8; icilin activation; eight-point dose-response; read-out: IC50
Sequence (Q1A7N1 1-1104): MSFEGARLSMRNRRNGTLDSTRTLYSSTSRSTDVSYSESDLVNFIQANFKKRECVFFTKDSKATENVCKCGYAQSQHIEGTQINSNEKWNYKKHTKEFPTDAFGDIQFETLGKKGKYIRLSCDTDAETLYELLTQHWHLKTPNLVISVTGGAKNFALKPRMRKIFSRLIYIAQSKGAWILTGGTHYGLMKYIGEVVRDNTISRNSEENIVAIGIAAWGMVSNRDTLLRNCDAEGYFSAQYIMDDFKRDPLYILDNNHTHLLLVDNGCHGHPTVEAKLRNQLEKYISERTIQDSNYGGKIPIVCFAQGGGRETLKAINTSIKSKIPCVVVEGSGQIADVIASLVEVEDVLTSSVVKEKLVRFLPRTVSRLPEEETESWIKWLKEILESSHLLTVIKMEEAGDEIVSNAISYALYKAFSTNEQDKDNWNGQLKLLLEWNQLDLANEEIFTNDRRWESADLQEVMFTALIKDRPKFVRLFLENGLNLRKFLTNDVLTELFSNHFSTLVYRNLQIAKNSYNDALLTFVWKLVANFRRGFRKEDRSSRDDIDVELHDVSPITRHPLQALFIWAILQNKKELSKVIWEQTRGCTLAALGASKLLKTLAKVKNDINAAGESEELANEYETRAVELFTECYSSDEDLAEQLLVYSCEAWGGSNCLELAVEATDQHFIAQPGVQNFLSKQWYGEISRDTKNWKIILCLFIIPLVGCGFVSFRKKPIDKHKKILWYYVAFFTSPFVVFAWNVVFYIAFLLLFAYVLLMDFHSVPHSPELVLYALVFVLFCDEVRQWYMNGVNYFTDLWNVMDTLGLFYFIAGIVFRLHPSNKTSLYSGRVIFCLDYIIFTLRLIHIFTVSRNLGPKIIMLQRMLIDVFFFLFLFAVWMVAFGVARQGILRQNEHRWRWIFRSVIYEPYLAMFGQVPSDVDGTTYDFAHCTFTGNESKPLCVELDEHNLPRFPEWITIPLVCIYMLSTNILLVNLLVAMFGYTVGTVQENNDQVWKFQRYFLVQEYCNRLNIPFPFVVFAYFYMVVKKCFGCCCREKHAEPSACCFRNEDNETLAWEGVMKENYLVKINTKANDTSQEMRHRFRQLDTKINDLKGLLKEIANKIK
readout kind: log10(IC50) (log10 of the value in nM)

{"molecule": "O=S(=O)(c1ccccc1)N(Cc1ccc(Cl)cc1)c1sc2ccccc2c1Cl", "log10(IC50)": 1.02}
{"molecule": "Nc1ccc(S(=O)(=O)N(CCCCC(F)(F)F)c2sc3ccccc3c2Cl)cc1Cl", "log10(IC50)": 1.48}
{"molecule": "O=S(=O)(c1ccc(-c2nnn[nH]2)cc1)N(Cc1ccc(F)c(C(F)(F)F)c1)c1sc2ccccc2c1Br", "log10(IC50)": 0.30}
{"molecule": "Cc1c(N(CCC(F)(F)F)S(=O)(=O)c2ccc(C(=O)O)cc2F)sc2ccccc12", "log10(IC50)": 0.79}
{"molecule": "CCCCN(C1=C(OC)c2ccccc2S1(=O)=O)S(=O)(=O)c1ccc(C(=O)O)cc1", "log10(IC50)": 1.23}
{"molecule": "O=S(=O)(c1ccc(-c2nnn[nH]2)cc1)N(CCCCC(F)(F)F)c1sc2ccccc2c1Cl", "log10(IC50)": 1.34}
{"molecule": "CCS(=O)(=O)N(Cc1ccc(F)c(C(F)(F)F)c1)c1sc2ccccc2c1[C@H](C)O", "log10(IC50)": 0.30}
